# tested-on: T1, Human BCMA (human, UniProt Q02223 1-54, limits assumed)
# T1 construct: Soluble analyte in SPR; construct not described; also called huBCMA; B-cell maturation antigen
# T1 sequence (looked up): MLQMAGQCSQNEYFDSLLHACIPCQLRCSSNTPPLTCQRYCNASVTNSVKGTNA
# assay-overview: SPR, IgG immobilised, 37 C
We use 9 min as the dividing line for T ½: on or above the line is y, below is n.

Dear colleague, could you confirm whether L3.PY/L1.AH/H3.AQ (antibody, V domains shown, IgG) VH: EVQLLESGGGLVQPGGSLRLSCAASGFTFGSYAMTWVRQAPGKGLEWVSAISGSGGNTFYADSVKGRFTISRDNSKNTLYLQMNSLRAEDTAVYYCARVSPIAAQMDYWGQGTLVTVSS VL: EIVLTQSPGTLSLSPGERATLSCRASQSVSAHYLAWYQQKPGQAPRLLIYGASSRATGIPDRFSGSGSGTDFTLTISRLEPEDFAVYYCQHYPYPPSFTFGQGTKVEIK has T ½ at or above 9 min?
n

Please tell me: is the binder L3.PY/L3.KY/H2.YQ (antibody, V domains shown, IgG) VH: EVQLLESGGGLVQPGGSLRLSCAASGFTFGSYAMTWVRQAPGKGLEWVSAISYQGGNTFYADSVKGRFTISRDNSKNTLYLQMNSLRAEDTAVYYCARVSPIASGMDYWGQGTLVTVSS VL: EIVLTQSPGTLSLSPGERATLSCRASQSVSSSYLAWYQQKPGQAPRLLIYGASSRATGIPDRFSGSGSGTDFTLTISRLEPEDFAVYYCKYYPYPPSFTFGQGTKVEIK at or over 9 min in terms of T ½?
n

Reported T ½ reaches at least 9 min for L3.PY/L1.PH/H3.AE (antibody, V domains shown, IgG) VH: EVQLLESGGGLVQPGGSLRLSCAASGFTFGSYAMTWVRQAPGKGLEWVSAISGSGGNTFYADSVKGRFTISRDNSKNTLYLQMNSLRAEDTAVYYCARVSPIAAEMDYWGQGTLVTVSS VL: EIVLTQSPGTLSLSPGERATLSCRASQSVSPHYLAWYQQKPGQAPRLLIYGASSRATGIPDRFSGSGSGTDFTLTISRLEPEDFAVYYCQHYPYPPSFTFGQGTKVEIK ?
n

Can L3.PY/L1.PS/H2.HA (antibody, V domains shown, IgG) VH: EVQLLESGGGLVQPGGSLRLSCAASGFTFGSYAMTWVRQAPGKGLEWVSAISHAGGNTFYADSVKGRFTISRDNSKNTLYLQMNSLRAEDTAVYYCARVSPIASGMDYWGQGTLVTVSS VL: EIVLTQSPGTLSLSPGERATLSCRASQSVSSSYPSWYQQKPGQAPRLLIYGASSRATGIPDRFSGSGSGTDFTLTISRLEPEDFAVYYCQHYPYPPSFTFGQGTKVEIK be said to have T ½ at or above 9 min?
n

Textbook exercise: given the entry L3.PY/L3.KF/H3.AQ (antibody, V domains shown, IgG) VH: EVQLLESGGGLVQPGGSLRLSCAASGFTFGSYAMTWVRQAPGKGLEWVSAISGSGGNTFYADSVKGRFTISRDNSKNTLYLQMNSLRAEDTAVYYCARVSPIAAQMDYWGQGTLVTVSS VL: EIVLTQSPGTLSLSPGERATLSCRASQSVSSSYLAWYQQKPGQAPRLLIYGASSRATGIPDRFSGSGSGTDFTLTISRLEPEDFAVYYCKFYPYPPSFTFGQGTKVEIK , state whether its T ½ is greater than or equal to 9 min.
n

Has L3.PY/L1.PH/H3.AQ (antibody, V domains shown, IgG) VH: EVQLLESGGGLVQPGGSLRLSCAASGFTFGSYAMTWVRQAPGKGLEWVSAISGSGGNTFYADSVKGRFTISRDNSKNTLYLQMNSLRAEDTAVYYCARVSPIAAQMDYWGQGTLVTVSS VL: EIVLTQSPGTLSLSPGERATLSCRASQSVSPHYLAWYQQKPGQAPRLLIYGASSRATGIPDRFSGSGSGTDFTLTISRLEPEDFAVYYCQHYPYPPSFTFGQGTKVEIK a recorded T ½ greater than or equal to 9 min?
n

Record L3.PY/H2.QR (antibody, V domains shown, IgG) VH: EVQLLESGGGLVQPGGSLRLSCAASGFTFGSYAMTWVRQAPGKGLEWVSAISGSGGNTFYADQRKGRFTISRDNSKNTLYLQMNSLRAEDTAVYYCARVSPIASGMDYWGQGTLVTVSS VL: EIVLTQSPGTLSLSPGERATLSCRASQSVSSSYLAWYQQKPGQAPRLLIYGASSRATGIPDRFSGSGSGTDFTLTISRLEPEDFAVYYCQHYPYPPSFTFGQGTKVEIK ; criterion: T ½ no lower than 9 min. Met?
y

Given the entry L3.PY/L1.PS/P6E01 (antibody, V domains shown, IgG) VH: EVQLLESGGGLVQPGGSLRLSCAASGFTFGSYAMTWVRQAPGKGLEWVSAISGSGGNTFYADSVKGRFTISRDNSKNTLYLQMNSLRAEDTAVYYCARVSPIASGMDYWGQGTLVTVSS VL: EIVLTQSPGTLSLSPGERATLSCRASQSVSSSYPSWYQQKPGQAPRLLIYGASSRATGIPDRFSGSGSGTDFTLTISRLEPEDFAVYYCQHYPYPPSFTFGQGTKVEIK , answer whether its T ½ meets or surpasses 9 min.
y

Is T ½ for L3.PY/L1.AH/H3.AE (antibody, V domains shown, IgG) VH: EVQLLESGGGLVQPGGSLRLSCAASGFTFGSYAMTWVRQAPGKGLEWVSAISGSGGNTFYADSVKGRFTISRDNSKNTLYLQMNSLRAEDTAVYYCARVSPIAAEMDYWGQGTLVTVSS VL: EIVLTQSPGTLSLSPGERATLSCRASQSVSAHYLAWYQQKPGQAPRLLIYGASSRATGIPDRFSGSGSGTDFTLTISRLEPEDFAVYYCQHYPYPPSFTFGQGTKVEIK at or above 9 min?
n
